Origin of values: patent EP0103830A2

- Experiment Notes: Feeding trial in rats over 15 days (Beispiel 7), results relative to control
- Type: in vivo
- Run Parameters: 25 ppm in feed, 15 Tage, Ratten weiblich SPF-Wistar; Kontrolle = 100 %
Measured Metric: Futteraufnahme (%)
Write the value in % as a bare number.

{"Compound": "CC(C)(C)NCC(O)c1ccc(O)c(C(N)=O)c1 (stereo not drawn)", "Units": "%", "Futteraufnahme": 106}

Inquiry: For CC(Cc1ccc2c(c1)OCO2)NCC(O)c1ccc(O)c(O)c1 (stereo not drawn) , what is its reported Futteraufnahme?
Reply text: 104

Inquiry: For NCC(O)c1cccc(O)c1 (stereo not drawn) , what is its reported Futteraufnahme?
Reply text: 98

Inquiry: For CC(N)C(O)c1cccc(O)c1 (stereo not drawn) , what is its reported Futteraufnahme?
Reply text: 99

Inquiry: For CCNCC(O)c1cccc(O)c1 (stereo not drawn) , what is its reported Futteraufnahme?
Reply text: 104
